TARGET: T1, recombinant His-tagged Der p1 (dust mite, UniProt P08176 99-320, limits assumed)
T1 construct: Recombinant His-tagged protein made by the applicant; also called Der p1-His; Der pl; not shown: His tag
T1 sequence (looked up): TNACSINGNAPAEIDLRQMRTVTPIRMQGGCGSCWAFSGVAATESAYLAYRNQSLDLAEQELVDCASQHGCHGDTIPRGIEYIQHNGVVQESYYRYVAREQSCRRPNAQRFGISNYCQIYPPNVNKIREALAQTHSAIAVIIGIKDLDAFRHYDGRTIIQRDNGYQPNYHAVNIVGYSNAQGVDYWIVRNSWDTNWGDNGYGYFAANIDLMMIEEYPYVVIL
PROTOCOL_DETAILS: ELISA, Der p1 on plate, biotinylated peptide at 10, duplicate 1
No end group written: not given here.
MEASURE: OD450

BINDER: YPTWAYR (also: biotinylated, site not given here, 7-amino acid peptide from a phage display library) [SDAB22110-2-C3]
REPORTED_VALUE: 0.346 OD450
--
BINDER: GIHMALM (also: biotinylated, site not given here, 7-amino acid peptide from a phage display library) [SDAB22110-2-B2]
REPORTED_VALUE: 0.275 OD450
--
BINDER: LTGYGMS (also: biotinylated, site not given here, 7-amino acid peptide from a phage display library) [SDAB22110-2-D9]
REPORTED_VALUE: 0.374 OD450
